Sourced from the supplement of paper PMC12645437

Target: T1, CRBN, Q96SW2;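 further: pooled lentiviral library of zinc finger degron-EGFP fusions in mCherry-positive Jurkat cells, FACS-sorted after compound exposure, with degron abundance counted by next-generation sequencing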
T1 chain: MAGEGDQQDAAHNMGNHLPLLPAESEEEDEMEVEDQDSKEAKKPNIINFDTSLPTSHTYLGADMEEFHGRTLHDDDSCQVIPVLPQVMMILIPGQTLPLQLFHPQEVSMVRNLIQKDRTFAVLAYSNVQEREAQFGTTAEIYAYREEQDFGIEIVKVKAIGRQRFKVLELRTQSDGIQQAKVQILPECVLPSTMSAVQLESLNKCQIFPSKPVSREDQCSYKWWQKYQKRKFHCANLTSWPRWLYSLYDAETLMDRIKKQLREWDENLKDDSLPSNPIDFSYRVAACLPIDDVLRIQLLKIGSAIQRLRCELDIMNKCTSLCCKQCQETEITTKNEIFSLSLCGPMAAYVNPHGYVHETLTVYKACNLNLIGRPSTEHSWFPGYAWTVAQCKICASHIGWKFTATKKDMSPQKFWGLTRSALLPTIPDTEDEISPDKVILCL
Test: log2 fold change of degron read counts, EGFP-low vs EGFP+ sorted cells (limma voom), compound-induced degradation; higher = more compound-induced degradation of the degron-EGFP fusion; degrons are variants of IKZF1/3 zinc finger 2; compound dose not given here
Conditions: Jurkat; 18 h; compound: compound 22 (5-morpholino-thalidomide)
Whole data set: some 8,300 sequences, median “log2 fold change of degron read counts, EGFP-low vs EGFP+ sorted cells (limma voom), compound-induced degradation” near -1.1, cut for the highest 2% near 3.2. For the sample, the highest values were picked, then their nearest neighbours and some sequences at random.
So I've got a bunch of sequences here, and I need their log2 fold change of degron read counts values.
Respond with the number and no other words.

The sequence identified as FECDVCGADFTQKGNLLRHIKL [46F_47E_49D_50V_52G_53A_54D_55F_67L_, Q9UKT9] registered its log2 fold change of degron read counts at -3.19

Input LCCEICGFECTQKGNLLRHIKL [46L_47C_49E_50I_52G_53F_54E_55C_67L_, Q9UKT9] . Output log2 fold change of degron read counts: -0.269

Briefly, log2 fold change of degron read counts measured for LICEICGFKCTQKGNLLRHIKL [46L_47I_49E_50I_52G_53F_54K_55C_67L_, Q9UKT9] : 1.62

Query LLCEICGFKCTQKGNLLRHIKL [46L_47L_49E_50I_52G_53F_54K_55C_67L_, Q9UKT9] yields log2 fold change of degron read counts of -1.51

Entry FYCEICGRMFTQKGNLLRHIKL [46F_47Y_49E_50I_52G_53R_54M_55F_67L_, Q9UKT9] — recorded log2 fold change of degron read counts = 1.03

The sequence FTCDQCGAFFTQKGNLLRHIKL [46F_47T_49D_50Q_52G_53A_54F_55F_67L_, Q9UKT9] showed log2 fold change of degron read counts equal to -2.78

The reported value for LACEICGFKCTQKGNLLRHIKL [46L_47A_49E_50I_52G_53F_54K_55C_67L_, Q9UKT9] in terms of log2 fold change of degron read counts is 1.5

Query FRCEQCGALFTQKGNLLRHIKL [46F_47R_49E_50Q_52G_53A_54L_55F_67L_, Q9UKT9] yields log2 fold change of degron read counts of -2.97

Lab note: measured log2 fold change of degron read counts of LDCPICGFWCTQKGNLLRHIKL [46L_47D_49P_50I_52G_53F_54W_55C_67L_, Q9UKT9] was -0.625

Short answer for FECEICGHSFTQKGNLLRHIKL [46F_47E_49E_50I_52G_53H_54S_55F_67L_, Q9UKT9] : log2 fold change of degron read counts was -3.98

# sequence FWCEQCGANFTQKGNLLRHIKL [46F_47W_49E_50Q_52G_53A_54N_55F_67L_, Q9UKT9] ; its log2 fold change of degron read counts = 2.8

// sample FCCSVCGHKFTQKGNLLRHIKL [46F_47C_49S_50V_52G_53H_54K_55F_67L_, Q9UKT9] , its log2 fold change of degron read counts was -2.26

Entry LSCEICGFKCTQKGNLLRHIKL [46L_47S_49E_50I_52G_53F_54K_55C_67L_, Q9UKT9] ; log2 fold change of degron read counts = 1.7

For reference, reported log2 fold change of degron read counts for LYCEICGFKCTQKGNLLRHIKL [46L_47Y_49E_50I_52G_53F_54K_55C_67L_, Q9UKT9] stands at 3.16

Form: sequence = LCCEICGFKCTQKGNLLRHIKL [46L_47C_49E_50I_52G_53F_54K_55C_67L_, Q9UKT9] ; log2 fold change of degron read counts = 1.83
